Test: Solid-state accelerated stability test (40 ± 2 °C/RH 75 ± 5 %)
Conditions: Table 7, initial
Where a name gives a salt, the structure may show the parent alone.
Quantity kind: Initial (%) Total Related substances

Illustrative cases are given below, each with its answer.
{"Compound": "Cc1nc2c(O[C@H]3CCOc4cc(F)cc(F)c43)cc(C(=O)N(C)C)cc2[nH]1 [Methanesulfonate Salt (Amorphous Form)]", "Initial (%) Total Related substances": "0.530%"}
{"Compound": "Cc1nc2c(O[C@H]3CCOc4cc(F)cc(F)c43)cc(C(=O)N(C)C)cc2[nH]1 [Malate Salt]", "Initial (%) Total Related substances": "0.146%"}
{"Compound": "Cc1nc2c(O[C@H]3CCOc4cc(F)cc(F)c43)cc(C(=O)N(C)C)cc2[nH]1 [Methanesulfonate Salt (Crystalline Form)]", "Initial (%) Total Related substances": "0.265%"}
{"Compound": "Cc1nc2c(O[C@H]3CCOc4cc(F)cc(F)c43)cc(C(=O)N(C)C)cc2[nH]1 [Sulfate Salt]", "Initial (%) Total Related substances": "0.609%"}
{"Compound": "Cc1nc2c(O[C@H]3CCOc4cc(F)cc(F)c43)cc(C(=O)N(C)C)cc2[nH]1 [Hydrobromide Salt]", "Initial (%) Total Related substances": "2.173%"}

Input line: Return reported Initial (%) Total Related substances; argument: Cc1nc2c(O[C@H]3CCOc4cc(F)cc(F)c43)cc(C(=O)N(C)C)cc2[nH]1 [Pidolate Salt]
Output line: 0.145%

Input line: Next compound up: Cc1nc2c(O[C@H]3CCOc4cc(F)cc(F)c43)cc(C(=O)N(C)C)cc2[nH]1 [Hemisalicylate Salt]
Output line: 0.208%

Input line: Next compound up: Cc1nc2c(O[C@H]3CCOc4cc(F)cc(F)c43)cc(C(=O)N(C)C)cc2[nH]1 [Hydrochloride Salt (Amorphous Form)]
Output line: 0.207%

Input line: Next compound up: Cc1nc2c(O[C@H]3CCOc4cc(F)cc(F)c43)cc(C(=O)N(C)C)cc2[nH]1 [Phosphate Salt]
Output line: 0.254%

Input line: Next compound up: Cc1nc2c(O[C@H]3CCOc4cc(F)cc(F)c43)cc(C(=O)N(C)C)cc2[nH]1 [Maleate Salt]
Output line: 0.357%

###

Experiment: Solid-state stress stability test (temperature 60 °C)
Conditions: 60 °C, 1 month vs initial
Where a name gives a salt, the structure may show the parent alone.
Recorded Change (%) Degradant, one value per entry.
Answer format: numeric, % implied, no suffix.

Illustrative cases are given below, each with its answer.
{"Compound": "Cc1nc2c(O[C@H]3CCOc4cc(F)cc(F)c43)cc(C(=O)N(C)C)cc2[nH]1 [Hydrobromide Salt]", "Change (%) Degradant": 5.815}
{"Compound": "Cc1nc2c(O[C@H]3CCOc4cc(F)cc(F)c43)cc(C(=O)N(C)C)cc2[nH]1 [Sulfate Salt]", "Change (%) Degradant": 2.006}
{"Compound": "Cc1nc2c(O[C@H]3CCOc4cc(F)cc(F)c43)cc(C(=O)N(C)C)cc2[nH]1 [Methanesulfonate Salt (Amorphous Form)]", "Change (%) Degradant": 8.961}
{"Compound": "Cc1nc2c(O[C@H]3CCOc4cc(F)cc(F)c43)cc(C(=O)N(C)C)cc2[nH]1 [Phosphate Salt]", "Change (%) Degradant": 1.583}
{"Compound": "Cc1nc2c(O[C@H]3CCOc4cc(F)cc(F)c43)cc(C(=O)N(C)C)cc2[nH]1 [Malate Salt]", "Change (%) Degradant": 1.316}

Input line: Return reported Change (%) Degradant; argument: Cc1nc2c(O[C@H]3CCOc4cc(F)cc(F)c43)cc(C(=O)N(C)C)cc2[nH]1 [Maleate Salt]
Output line: 1.221

Input line: Next compound up: Cc1nc2c(O[C@H]3CCOc4cc(F)cc(F)c43)cc(C(=O)N(C)C)cc2[nH]1 [Methanesulfonate Salt (Crystalline Form)]
Output line: 4.045

Input line: Next compound up: Cc1nc2c(O[C@H]3CCOc4cc(F)cc(F)c43)cc(C(=O)N(C)C)cc2[nH]1 [Hemisalicylate Salt]
Output line: 0.038

Input line: Next compound up: Cc1nc2c(O[C@H]3CCOc4cc(F)cc(F)c43)cc(C(=O)N(C)C)cc2[nH]1 [Pidolate Salt]
Output line: 0.087

These measurements were taken from patent EP4678639A1.
